- Method notes: NCI Yeast Anticancer Drug Screen. Data for the mlh1 rad18 strain (AID 175)
- Measurement setup: S. cerevisiae mlh1 rad18 strain growth inhibition; at 5.0 µM (retest, dose inferred, filed as 0.5); active compounds read high
The panel holds about 79,000 compounds, 15% with a hit somewhere; the sample as a whole holds those more often.
Here, each record is paired with measured growth inhibition data.
Quantity measured: growth inhibition (%)

Molecule | U | Recorded number
OC1(c2ccccc2)c2ccccc2C(O)(c2ccccc2)c2cc3c(cc21)CCCC3 (configuration not stated) | % | 51
CC(C)C(Cl)CC/C(CBr)=C(\Cl)CCl (configuration not stated) | % | 28
CSC(=S)n1nc(-c2cccs2)c(N=Nc2ccccc2)c1C(F)(F)F | % | 1
CC1=C(C(=O)Nc2ccccc2)C(c2ccc(C(C)C)cc2)C(C(=O)Nc2ccccc2)=C(C)N1 | % | -3
CC(=O)Nc1nnc(-c2coc3ccccc3c2=O)s1 | % | 2
O=C(/C=C\c1ccc([N+](=O)[O-])o1)/C=C/c1ccc([N+](=O)[O-])o1 | % | 91
O=C(O)c1cc(Br)ccc1OCc1ccc(Cl)cc1 | % | -8
CCn1c(O)c(C=Nc2ccccc2)s/c1=N/Nc1nc(-c2ccc(O)c(O)c2)cs1 | % | -17
Nc1nc(N)c(-c2cccc(C(F)(F)F)c2)c(Cc2cccc(C(F)(F)F)c2)n1 | % | 0
CCOC(=O)c1ccc(NC(=O)CCl)cc1 | % | 12
Cc1ccc(Nc2nc3c(s2)C(=O)c2ccccc2C3=O)c(C)c1 | % | 30
O=C(NNc1ncccn1)c1ccc(C(=O)NNc2ncccn2)cc1 | % | 2
CCOC(=O)c1cc(C)c(O)c(C(=O)OCC)c1 | % | -28
CCCCCCCCC[n+]1cccc(C(=O)c2ccccc2)c1 | % | 36
COc1ccc(N2C(=O)C(=O)N(c3ccccc3[N+](=O)[O-])C2=S)cc1 | % | 3
C=C1CC[C@@H](Br)C(C)(C)[C@]12CCC(C)(O)C(Cl)C2 (some centres not stated) | % | -25
Oc1ccccc1C1CCCCC1 | % | 4
[N-]=[N+]=NC1=C(C(=O)c2ccccc2)C(=O)c2cccc3cccc1c23 | % | 4
CC(=O)NNc1nc(C)c(C(=O)NNC(=O)C(=O)Nc2ccc(Cl)cc2Cl)s1 | % | -2
COC1=C(/C(=N/Nc2ccc([N+](=O)[O-])cc2[N+](=O)[O-])c2ccccc2)COC1=O | % | 3
Cn1c(=O)c2c(nnc(-c3ccccc3)[n+]2[O-])n(C)c1=O | % | -6
O=[N+]([O-])c1cc2ccc(O)cc2c2ccccc12 | % | -7
